A collection of molecules and their measured max response
- Test system: KB-3-1
- measurementDescription: Cytotoxic Profiling of Annotated Libraries Using Quantitative High-Throughput Screening (AID 1296008); note: % is set by controls: 0 for no effect and ±100 for the full control effect; nearly all actives have a fitted effect of over 60% in size
- measurementParameters: Five cell lines viability, CellTiter-Glo ATP luminescence, 48-72 h, active compounds read low
Inconclusive results are not listed.
assayEndpoint: max response (%)

| molecule | systemUnderTest | quantitativeReadout |
| --- | --- | --- |
| NC(=O)CC[C@@H](N)C(=O)O | KB-3-1 | -2.46 |
| CCCCCCCCCCOc1cc2c(=O)c(C(=O)OCC)c[nH]c2cc1OCC | KB-3-1 | 7.91 |
| Cc1ccc2c(c1)c1c3n2CCNC3CCC1 (configuration not stated) | KB-3-1 | -0.231 |
| CC(N)CCCC(C)(C)O (configuration not stated) | KB-3-1 | 2.21 |
| OCC(O)CS (configuration not stated) | KB-3-1 | 1.95 |
| Cc1onc(-c2ccccc2)c1-c1ccc(S(N)(=O)=O)cc1 | KB-3-1 | 6.03 |
| CCCCOC(=O)c1ccc(N)cc1 | KB-3-1 | 0.229 |
| O=C(O)CCCc1ccccc1 | KB-3-1 | 18.7 |
| CCCOC(=O)c1ccc(N)cc1 | KB-3-1 | 1.99 |
| CC[N+](CC)(CC(=O)Nc1c(C)cccc1C)Cc1ccccc1 | KB-3-1 | -3.17 |
| O=C(O)c1ccc[n+]([O-])c1 | KB-3-1 | -1.65 |
| CCCCCC(C)N (configuration not stated) | KB-3-1 | -3.94 |
| O=C(O)c1ccc(OCCCOc2ccc(C(=O)O)cc2)cc1 | KB-3-1 | 3.43 |
| CCOc1cc(NC(C)=O)ccc1C(=O)OC | KB-3-1 | 19.6 |
| O=C1c2ccccc2C(=O)C1c1ccc(Br)cc1 | KB-3-1 | -16.6 |
| CC(C)CCOC(=O)c1ccc(N(C)C)cc1 | KB-3-1 | 11.7 |
| O=C(NCN1CCOCC1)c1cnccn1 | KB-3-1 | -13.5 |
| CC(C)c1cc2c(cc1S(=O)(=O)O)[C@@]1(C)CCC[C@@](C)(C(=O)O)[C@@H]1CC2 | KB-3-1 | -7.82 |
| CC1CCc2cc(F)cc3c(=O)c(C(=O)O)cn1c23 (configuration not stated) | KB-3-1 | -6.7 |
| Nc1ncnc2c1ncn2[C@@H]1O[C@H](COP(=O)(O)O)[C@@H](O)[C@H]1O | KB-3-1 | -9.67 |
| O=C(O)CCCCC1CCSS1 (configuration not stated) | KB-3-1 | 3.98 |
| CC(=O)Nc1cccc(O)c1 | KB-3-1 | 0.376 |
| CN1CCCN=C1COC(=O)C(O)(c1ccccc1)C1CCCCC1 (configuration not stated) | KB-3-1 | -13.9 |
| CCN(CC)C(=O)c1cccc(C)c1 | KB-3-1 | 13.2 |
| CC1CC(OC(=O)c2ccccc2O)CC(C)(C)C1 (configuration not stated) | KB-3-1 | -9.15 |
| Cc1c(C)c2c(c(C)c1OC(=O)c1cccnc1)CC[C@@](C)(CCC[C@H](C)CCC[C@H](C)CCCC(C)C)O2 | KB-3-1 | 1.29 |
| COCC(=O)Nc1c(I)c(C(=O)NCC(O)CO)c(I)c(C(=O)N(C)CC(O)CO)c1I (configuration not stated) | KB-3-1 | 11.7 |
